Target: hCA IX (Homo sapiens)
Experiment: stopped-flow CO2 hydration assay, hCA IX
Details: Ki (CA II)/Ki (CA IX)
readout.kind: S.I. II/IX

compound | S.I. II/IX
NS(=O)(=O)c1ccc(CCNC(=S)N[C@@H]2O[C@H](CO)[C@@H](O)[C@H](O)[C@H]2O)cc1 [Compound 1c] | 12.4

1. CO[C@H]1O[C@H](CO)[C@@H](O)[C@H](O)[C@H]1NC(=S)NCCCCCCOc1ccc2c(-c3ccccc3)cc(=O)oc2c1 [Compound 21f]
2. NS(=O)(=O)c1ccc(NC(=S)N[C@@H]2O[C@H](CO)[C@H](O)[C@H](O)[C@H]2O)cc1 [Compound 2a]
3. NS(=O)(=O)c1ccc(CCNC(=S)N[C@@H]2O[C@H](CO)[C@H](O)[C@H](O)[C@H]2O)cc1 [Compound 2c]
Please give the order of these compounds when sorted by S.I. II/IX, largest value leading. # answer = labels listed in requested order
1, 2, 3
(1: 148, 2: 31.7, 3: 3.3)

A. NS(=O)(=O)c1ccc(NC(=S)NC2C(O)OC(CO)C(O)C2O)cc1 (stereo not drawn) [Compound 3a]
B. NS(=O)(=O)c1cccc(NC(=S)N[C@H]2C(O)O[C@H](CO)[C@H](O)[C@@H]2O)c1 (stereo partly drawn) [Compound 4b]
// pick min by S.I. II/IX: A , B Please reply using the label of the selected record.
B
(B: 22.4, A: 126)

P. NS(=O)(=O)c1ccc(NC(=S)N[C@@H]2O[C@H](CO)[C@@H](O)[C@H](O)[C@H]2O)cc1 [Compound 1a]
Q. NS(=O)(=O)c1ccc(NC(=S)N[C@H]2C(O)O[C@H](CO)[C@H](O)[C@@H]2O)cc1 (stereo partly drawn) [Compound 4a]
// pick min by S.I. II/IX: P , Q Please reply using the label of the selected record.
P
(P: 0.02, Q: 104)

Hello, the source for this data is paper PMC10253577, in case you need it.
